For each of the molecules below, state its EC50.
assay target: Peroxisome proliferator-activated receptor gamma (Homo sapiens, UniProt P37231)
Sequence (P37231 whole entry): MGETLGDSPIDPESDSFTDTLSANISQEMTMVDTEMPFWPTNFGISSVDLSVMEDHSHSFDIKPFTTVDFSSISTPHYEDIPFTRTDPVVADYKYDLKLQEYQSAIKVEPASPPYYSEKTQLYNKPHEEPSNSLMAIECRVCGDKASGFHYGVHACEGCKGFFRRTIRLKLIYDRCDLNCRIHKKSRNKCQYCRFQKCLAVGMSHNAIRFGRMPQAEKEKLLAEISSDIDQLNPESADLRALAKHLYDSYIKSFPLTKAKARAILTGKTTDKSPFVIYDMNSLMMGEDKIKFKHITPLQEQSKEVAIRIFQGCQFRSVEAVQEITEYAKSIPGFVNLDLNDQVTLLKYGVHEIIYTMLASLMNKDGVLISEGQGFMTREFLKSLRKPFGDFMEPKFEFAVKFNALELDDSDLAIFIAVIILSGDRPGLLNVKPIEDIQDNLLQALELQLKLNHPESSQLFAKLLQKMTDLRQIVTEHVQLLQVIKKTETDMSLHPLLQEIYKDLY
Format: cell-based, CV-1

Ask: What is its EC50 for Peroxisome proliferator-activated receptor gamma (Homo sapiens, UniProt P37231)? Entry: Cc1nc(-c2ccc(C(F)(F)F)cc2)sc1C(=O)NCc1ccc(OC(C)(C)C(=O)O)cc1
Result: > 10 µM

Ask: What is its EC50 for Peroxisome proliferator-activated receptor gamma (Homo sapiens, UniProt P37231)? Entry: Cc1cc2c(CCc3nc(-c4ccc(Cl)cc4Cl)oc3C(C)C)noc2cc1OCC(=O)O
Result: > 10 µM

====

assay target: Peroxisome proliferator-activated receptor gamma (Homo sapiens)
experimental details: Transactivation of full length human PPARgamma expressed in african green monkey CV1 cells by luciferase reporter gene assay
Type: cell-based, CV-1
pEC50: −log10 of the molar value.
value kind: pEC50

Ask: Can you share its pEC50? I mean this molecule: Cc1cc2c(CCc3nc(-c4ccc(Cl)cc4Cl)oc3C(C)C)noc2cc1OCC(=O)O
Result: < 5.00
